Ref: ChEMBL document CHEMBL1127131

# Test system: Klebsiella
# procedure-details: Minimum inhibitory concentration required for antibacterial activity against Klebsiella
# Format: functional
Decide using MIC alone. Strictly below 3 µg/mL: yes (1). Equal to or above 3 µg/mL: no (0).

line-notation	label-value
CSC[C@@H](N)C1=C(C(=O)O)N2C(=O)[C@H]([C@@H](C)O)[C@H]2S1	yes (1)
CSCC[C@H](N)C1=C(C(=O)O)N2C(=O)[C@H]([C@@H](C)O)[C@H]2S1	no (0)
C[C@@H](O)[C@H]1C(=O)N2C(C(=O)O)=C(CC[C@H](N)C(=O)O)S[C@H]12	no (0)
C[C@H](N)C1=C(C(=O)O)N2C(=O)[C@H]([C@@H](C)O)[C@H]2S1	no (0)
C[C@@H](O)[C@H]1C(=O)N2C(C(=O)O)=C(SC[C@@H](N)C(=O)O)S[C@H]12	yes (1)
C[C@@H](N)C1=C(C(=O)O)N2C(=O)[C@H]([C@@H](C)O)[C@H]2S1	no (0)
C[C@@H](O)[C@H]1C(=O)N2C(C(=O)O)=C(CC[C@@H](N)C(=O)O)S[C@H]12	yes (1)
C[C@@H](O)[C@H]1C(=O)N2C(C(=O)O)=C(CSC[C@H](N)C(=O)O)S[C@H]12	no (0)
CSC[C@H](N)C1=C(C(=O)O)N2C(=O)[C@H]([C@@H](C)O)[C@H]2S1	no (0)
C[C@@H](O)[C@H]1C(=O)N2C(C(=O)O)=C(SCCOC(N)=O)S[C@H]12	yes (1)
CSCC[C@@H](N)C1=C(C(=O)O)N2C(=O)[C@H]([C@@H](C)O)[C@H]2S1	yes (1)
C[C@@H](O)[C@H]1C(=O)N2C(C(=O)O)=C(CN)S[C@H]12	no (0)
C[C@@H](O)[C@H]1C(=O)N2C(C(=O)O)=C(SC[C@H](N)C(=O)O)S[C@H]12	no (0)
C[C@@H](O)[C@H]1C(=O)N2C(C(=O)O)=C(CSC[C@@H](N)C(=O)O)S[C@H]12	yes (1)
C[C@@H](O)[C@H]1C(=O)N2C(C(=O)O)=C([C@H](N)CCC(=O)O)S[C@H]12	no (0)
C[C@@H](O)[C@H]1C(=O)N2C(C(=O)O)=C(COC(N)=O)S[C@H]12	yes (1)

----------
# Tested on: Enterococcus faecalis
# procedure-details: Minimum inhibitory required for antibacterial activity against Streptococcus faecalis
# Type: functional
The following compounds are listed with their measured log10(MIC) values.
endpoint: log10(MIC) (log10 of the value in µg/mL)

line-notation	quantitative-readout
C[C@@H](O)[C@H]1C(=O)N2C(C(=O)O)=C(SC[C@H](N)C(=O)O)S[C@H]12	2.11
C[C@@H](O)[C@H]1C(=O)N2C(C(=O)O)=C(COC(N)=O)S[C@H]12	0.76
C[C@@H](O)[C@H]1C(=O)N2C(C(=O)O)=C([C@H](N)CCC(=O)O)S[C@H]12	1.20
C[C@@H](O)[C@H]1C(=O)N2C(C(=O)O)=C(CC[C@H](N)C(=O)O)S[C@H]12	1.96
CSCC[C@@H](N)C1=C(C(=O)O)N2C(=O)[C@H]([C@@H](C)O)[C@H]2S1	0.90
C[C@@H](O)[C@H]1C(=O)N2C(C(=O)O)=C(SC[C@@H](N)C(=O)O)S[C@H]12	1.66
C[C@@H](O)[C@H]1C(=O)N2C(C(=O)O)=C(SCCOC(N)=O)S[C@H]12	0.76
CSCC[C@H](N)C1=C(C(=O)O)N2C(=O)[C@H]([C@@H](C)O)[C@H]2S1	1.81
